Where do these numbers come from? They come from patent US20200054601A1.

Test: Qualitative solubility testing of the test article in the test system
Format: physicochemical
Settings: aqueous buffer; pH 7.4, potassium phosphate buffer, MgCl2, EDTA, human liver microsomes 0.0125 mg/mL; read-out: Soluble in the test system (visual comparison)
quantity_name: solubility

Clc1ccc([C@]23CNC[C@H]2C3)cc1Cl [Amitifadine] | ≥ 200 µM
